Recorded pIC50 for the following compounds
organism: Rattus norvegicus; assay: Concentration required for inhibition of adipocyte lipolysis in rat adipocyte assay was determined; format: functional
Schema: pIC50 number; meaning minus log10 of the concentration expressed in molar units.

{"columns": ["Compound", "pIC50"],
 "data": [
  ["COc1ccc(NC(=O)Oc2cccc3ocnc23)cc1", 5.62],
  ["COc1ccc(CNC(=O)Oc2cccc3cccnc23)cc1", 5.24],
  ["CC(NC(=O)Oc1cccc2cccnc12)c1ccccc1 (configuration not stated)", 4.46],
  ["COc1ccccc1NC(=O)Oc1ccc2ncccc2c1", 4.52],
  ["COc1ccccc1NC(=O)Oc1cccc2cccnc12", 5.15]
]}

[ask] Give its pIC50 value. Item: COc1ccc(NC(=O)Oc2cccc3ccc(C)nc23)cc1
[reply] 6.70

[ask] What do you have for COc1cccc(NC(=O)Oc2cccc3cccnc23)c1 ?
[reply] 5.15

[ask] Also C[C@@H](NC(=O)Oc1cccc2cccnc12)c1ccccc1 ?
[reply] 4.46

[ask] Lookup COc1ccccc1OC(=O)Nc1cccc2cccnc12
[reply] 4.52

[ask] Check COc1ccc(OC)c(NC(=O)Oc2cccc3cccnc23)c1 too.
[reply] 5.00

[ask] Another compound to check: COc1ccccc1NC(=O)Oc1ccc2cccnc2c1
[reply] 4.10

[ask] And what about the compound O=C(NCCCCCCNC(=O)ON=C1CCCCC1)ON=C1CCCCC1 ?
[reply] 6.00

* * *

organism: Rattus norvegicus; assay: Percent inhibition of adipocyte lipolysis in rat adipocyte assay was determined at 30 uM concentration.; format: functional
Endpoint Label: inhibition at 30 µM (%)
The reply should be a number in %, with the unit left off.

{"columns": ["Molecular String", "inhibition at 30 µM [%]"],
 "data": [
  ["COc1ccc(NC(=O)Oc2ccc3cccnc3c2)cc1", 0],
  ["COc1ccc(OC(=O)Nc2cccc3cccnc23)cc1", 3],
  ["COc1ccc(NC(=O)Oc2cccc3ncccc23)cc1", 1]
]}

Here is the next item to consider.
[ask] What value of inhibition at 30 µM has been recorded for this entry: COc1ccc(NC(=O)Oc2ccc3ncccc3c2)cc1
[reply] 8

* * *

organism: Canis lupus familiaris; assay: Percentage inhibition of free fatty acid liberation at 100 uM determined in canine myocardial lipase assay; type: functional
Endpoint Label: inhibition (%)
Respond numerically; units are % and should not be typed.

[ask] Returns the measured inhibition for the input compound. Input: Cc1ccccc1NC(=O)Oc1cccc2cccnc12
[reply] 7

[ask] For O=C(Nc1cccc(Cl)c1)Oc1cccc2cccnc12 then?
[reply] 41

[ask] Also COc1ccc(CCNC(=O)Oc2cccc3cccnc23)cc1 ?
[reply] 70

[ask] And for COc1ccc(NC(=O)Oc2cccc3ccc(C)nc23)cc1 ?
[reply] 68

[ask] Same read-out for COc1ccc(CNC(=O)Oc2cccc3cccnc23)cc1 ?
[reply] 72

[ask] Entry to check: Cc1ccc2cccc(OC(=O)Nc3ccccc3)c2n1
[reply] 68

* * *

Measured inhibition values are reported for all entries that follow.
organism: Canis lupus familiaris; experiment: Percent inhibition of free fatty acid liberation at 100 uM was determined in Canine myocardial lipase assay
Write the value in % as a bare number.

{"columns": ["Molecule", "inhibition, %"],
 "data": [
  ["COc1ccc(NC(=O)Oc2ccc3ncccc3c2)cc1", 64],
  ["COc1ccc(NC(=O)Oc2cccc3ncccc23)cc1", 63],
  ["CCOC(=O)c1ccc(NC(=O)Oc2ccc3cccnc3c2)cc1", 46],
  ["COc1ccc(OC(=O)Nc2cccc3cccnc23)cc1", 75],
  ["CC(NC(=O)Oc1cccc2cccnc12)c1ccccc1 (configuration not stated)", 74],
  ["COc1cccc(NC(=O)Oc2ccc3cccnc3c2)c1", 52]
]}

Here is the next item to consider.
[ask] # lookup: inhibition of COc1ccc(NC(=O)COc2cccc3cccnc23)cc1
[reply] 7
